Quick reference: IC50 of the listed items.
# test.system: Epidermal growth factor receptor and ErbB2 (HER1 and HER2) (Homo sapiens, UniProt P04626+P00533)
# assay.comment: Inhibition of EGF-stimulated human umbilical vein endothelial cell proliferation

smiles.input	prefix.operator	IC50, nM
Cc1cc2c(Nc3ccc(C)c(O)c3)ncnn2c1	=	644
Cc1ccc2c(Nc3ccc(F)c(Cl)c3)ncnn12	>	2500
Fc1ccc(Nc2ncnn3cccc23)cc1Cl	=	345
Cc1ccc(Nc2ncnn3c(C)ccc23)cc1O	=	101
Cc1ccn2ncnc(Nc3ccc(F)c(Cl)c3)c12	=	602
Cc1ccc(Nc2ncnn3ccc(C)c23)cc1O	=	270
Cc1cc2c(Nc3ccc(F)c(Cl)c3)ncnn2c1	=	509

====

# test.system: Vascular endothelial growth factor receptor (Homo sapiens, UniProt P17948+P35916+P35968)
# assay.comment: Inhibition of VEGF-stimulated human umbilical vein endothelial cell proliferation
pIC50: −log10 of the molar value.

smiles.input	prefix.operator	pIC50
Cc1ccc(Nc2ncnn3cc(C)c(C)c23)cc1O	=	6.51
Cc1cc2c(Nc3ccc(C)c(O)c3)ncnn2c1	=	6.67
Cc1ccc2c(Nc3ccc(F)c(Cl)c3)ncnn12	<	5.60
Cc1ccc(Nc2ncnn3c(C)ccc23)cc1O	=	6.32
Cc1cc2c(Nc3ccc(F)c(Cl)c3)ncnn2c1	<	5.60
Cc1ccc(Nc2ncnn3ccc(C)c23)cc1O	=	7.01
Cc1ccc(Nc2ncnn3cccc23)cc1O	=	6.44
Fc1ccc(Nc2ncnn3cccc23)cc1Cl	<	5.60
Cc1ccn2ncnc(Nc3ccc(F)c(Cl)c3)c12	<	5.60

====

For reference, IC50 measured on Epidermal growth factor receptor (Homo sapiens):

smiles.input	uom	IC50
Cc1ccc(Nc2ncnn3ccc(C)c23)cc1O	nM	340
Cc1cc2c(Nc3ccc(F)c(Cl)c3)ncnn2c1	nM	150
Cc1ccc(Nc2ncnn3cccc23)cc1O	nM	510

====

For reference, pIC50 measured on Vascular endothelial growth factor receptor 2 (Homo sapiens, UniProt P35968):
pIC50: −log10 of the molar value.

smiles.input	prefix.operator	pIC50
Cc1ccc(Nc2ncnn3ccc(C)c23)cc1O	=	7.22
Cc1cc2c(Nc3ccc(F)c(Cl)c3)ncnn2c1	<	5.70
Cc1ccc2c(Nc3ccc(F)c(Cl)c3)ncnn12	<	5.70
Fc1ccc(Nc2ncnn3cccc23)cc1Cl	<	5.00
Cc1ccc(Nc2ncnn3cccc23)cc1O	=	5.84
